List of IC50 tested on DGKζ (hDGKzeta(1-928)-N-His) (Homo sapiens).
Sequence (Q13574 whole entry): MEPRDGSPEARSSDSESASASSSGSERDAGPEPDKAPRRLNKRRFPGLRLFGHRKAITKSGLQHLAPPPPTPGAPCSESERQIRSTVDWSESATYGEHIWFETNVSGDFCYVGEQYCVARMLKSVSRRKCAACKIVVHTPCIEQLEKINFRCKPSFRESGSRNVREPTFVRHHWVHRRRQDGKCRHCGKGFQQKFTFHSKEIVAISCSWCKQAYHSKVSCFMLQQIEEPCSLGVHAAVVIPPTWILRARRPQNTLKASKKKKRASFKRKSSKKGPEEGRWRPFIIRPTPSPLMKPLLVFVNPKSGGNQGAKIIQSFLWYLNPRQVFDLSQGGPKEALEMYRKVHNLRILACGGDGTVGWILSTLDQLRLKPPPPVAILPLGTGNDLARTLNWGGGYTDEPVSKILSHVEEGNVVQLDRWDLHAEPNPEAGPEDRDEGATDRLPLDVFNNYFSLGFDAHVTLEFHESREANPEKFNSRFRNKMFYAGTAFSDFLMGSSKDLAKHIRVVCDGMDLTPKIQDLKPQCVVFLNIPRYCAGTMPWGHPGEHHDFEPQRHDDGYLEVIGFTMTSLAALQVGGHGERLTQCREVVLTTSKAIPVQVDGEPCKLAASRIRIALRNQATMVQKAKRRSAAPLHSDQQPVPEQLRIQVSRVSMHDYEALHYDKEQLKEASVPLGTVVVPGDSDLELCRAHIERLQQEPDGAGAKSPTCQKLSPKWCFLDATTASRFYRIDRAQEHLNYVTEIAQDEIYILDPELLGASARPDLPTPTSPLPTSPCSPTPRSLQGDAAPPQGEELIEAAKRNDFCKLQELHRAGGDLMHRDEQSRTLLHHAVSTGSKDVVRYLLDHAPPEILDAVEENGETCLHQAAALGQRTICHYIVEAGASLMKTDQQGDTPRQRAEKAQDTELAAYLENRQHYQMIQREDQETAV
measured-quantity: IC50 (nM)

These recorded examples may help you get a feel for the data.
[
  {
    "molecule": "N[C@H]1CS(=O)(=O)c2cc(F)c(-c3noc(N4CCCC4)n3)cc2N(Cc2ccc(-c3noc(C(F)(F)F)n3)nc2)C1=O",
    "unit-descriptor": "nM",
    "val": 466
  },
  {
    "molecule": "COc1ccc(-c2ccc(CN3C(=O)[C@@H](N)CS(=O)(=O)c4ccc(-c5nnc(N6CCOC(F)(F)C6)o5)cc43)cc2)cc1",
    "unit-descriptor": "nM",
    "val": 880
  },
  {
    "molecule": "CC(O)(c1nnc(-c2ccc3c(c2)N(Cc2ccc(-c4noc(C5CC5)n4)cc2)C(=O)[C@@H](N)CS3(=O)=O)o1)C(F)(F)F (some centres unmarked)",
    "unit-descriptor": "nM",
    "val": 2000
  },
  {
    "molecule": "CC(c1nc(-c2ccc(CN3C(=O)[C@@H](N)CS(=O)(=O)c4ccc(-c5nnc(C6(N)CCCCC6)o5)cc43)cc2)no1)C(F)(F)F (some centres unmarked)",
    "unit-descriptor": "nM",
    "val": 1030
  },
  {
    "molecule": "Cc1noc(-c2ccc(CN3C(=O)[C@@H](N)CS(=O)(=O)c4cc(F)c(-c5nnc(C(C)(C)C)o5)cc43)cc2)n1",
    "unit-descriptor": "nM",
    "val": 128
  },
  {
    "molecule": "CC(C)(C)c1nnc(-c2ccc3c(c2)N(Cc2ccc(-n4cc(C(F)(F)F)cn4)cc2)C(=O)[C@@H](N)CS3(=O)=O)o1",
    "unit-descriptor": "nM",
    "val": 1270
  }
]

a. N[C@H]1CS(=O)(=O)c2cc(F)c(-c3noc(N4CCOC5(CC5)C4)n3)cc2N(Cc2ccc(-c3noc(C(F)(F)F)n3)nc2)C1=O
b. COc1ccc(-c2ccc(CN3C(=O)[C@@H](N)CS(=O)(=O)c4ccc(-c5nnc(N(C)CC(F)(F)F)o5)cc43)cc2)cc1
c. CC(C)(C#N)c1nnc(-c2ccc3c(c2)N(Cc2ccc(-c4ccnc(C(F)(F)F)c4)cc2)C(=O)[C@@H](N)CS3(=O)=O)o1
d. CC(C)(C)c1nnc(-c2ccc3c(c2)N(Cc2ccc(-n4ccc(C(F)(F)F)n4)cc2)C(=O)[C@@H](N)CS3(=O)=O)o1
e. CC(C)(C#N)c1nnc(-c2ccc3c(c2)N(Cc2ccc(-c4ccc(OC(F)(F)F)cc4)nc2)C(=O)[C@@H](N)CS3(=O)=O)o1
Q) Order the entries by their reported IC50, beginning at the minimum. // ordering of labels required in reply
A) a, d, c, e, b

###

Biological target: DGKα (hDGKalpha(1-735)-N-His) (Homo sapiens, UniProt P23743)
Construct: hDGKalpha(1-735)-N-His; His (N); made in house; host or cells: Sf21 insect cells (baculovirus)
Sequence (P23743 whole entry): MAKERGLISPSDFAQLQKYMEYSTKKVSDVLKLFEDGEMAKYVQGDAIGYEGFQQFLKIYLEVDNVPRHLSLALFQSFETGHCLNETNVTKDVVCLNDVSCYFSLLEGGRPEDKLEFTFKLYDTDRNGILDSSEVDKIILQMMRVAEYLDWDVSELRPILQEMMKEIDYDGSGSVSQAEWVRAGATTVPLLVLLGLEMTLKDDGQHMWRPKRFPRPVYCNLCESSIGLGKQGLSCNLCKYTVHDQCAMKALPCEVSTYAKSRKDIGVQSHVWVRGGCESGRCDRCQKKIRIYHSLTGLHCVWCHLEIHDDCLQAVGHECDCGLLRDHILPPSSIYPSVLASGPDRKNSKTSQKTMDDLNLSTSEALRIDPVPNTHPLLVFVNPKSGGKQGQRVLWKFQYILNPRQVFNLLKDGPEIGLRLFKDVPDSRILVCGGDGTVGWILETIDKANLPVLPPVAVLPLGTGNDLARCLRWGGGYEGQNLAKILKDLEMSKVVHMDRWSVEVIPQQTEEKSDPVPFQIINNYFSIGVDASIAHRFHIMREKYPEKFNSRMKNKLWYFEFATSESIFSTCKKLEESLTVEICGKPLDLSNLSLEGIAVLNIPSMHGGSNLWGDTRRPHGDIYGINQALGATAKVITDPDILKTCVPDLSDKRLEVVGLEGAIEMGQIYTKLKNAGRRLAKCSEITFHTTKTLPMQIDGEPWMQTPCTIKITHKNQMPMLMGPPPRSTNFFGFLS
Assay: In vitro DGK inhibition assay, DGKalpha ADP Glo (in house)
Format: biochemical
Settings: 4 nM DGKα, 25 μM ATP, 125 uM DLG in liposomes, 1 hour reaction
pIC50: −log10 of the molar value.
measured-quantity: pIC50

These recorded examples may help you get a feel for the data.
[
  {
    "molecule": "CC(C)(C#N)c1nnc(-c2ccc3c(c2)N(Cc2ccc(-c4nc(C(F)(F)F)co4)cc2)C(=O)[C@@H](N)CS3(=O)=O)o1 [Example 123]",
    "assay-system": "DGKα (hDGKalpha(1-735)-N-His) (Homo sapiens, UniProt P23743)",
    "pIC50": 5.73
  },
  {
    "molecule": "CC(C)(C#N)c1nnc(-c2ccc3c(c2)N(Cc2ccc(-c4ccc(C(F)(F)F)cc4)cc2)C(=O)[C@@H](N)CS3(=O)=O)o1 [Example 46]",
    "assay-system": "DGKα (hDGKalpha(1-735)-N-His) (Homo sapiens, UniProt P23743)",
    "pIC50": 4.79
  },
  {
    "molecule": "CC(N)(c1nnc(-c2ccc3c(c2)N(Cc2ccc(-c4noc(C(F)(F)F)n4)cc2)C(=O)[C@@H](N)CS3(=O)=O)o1)C(F)(F)F (stereo partly drawn) [Example 32]",
    "assay-system": "DGKα (hDGKalpha(1-735)-N-His) (Homo sapiens, UniProt P23743)",
    "pIC50": 4.41
  },
  {
    "molecule": "CC(C)(C#N)c1nnc(-c2ccc3c(c2)N(Cc2ccc(-c4ccc(OCC(F)(F)F)cn4)cc2)C(=O)[C@@H](N)CS3(=O)=O)o1 [Example 135]",
    "assay-system": "DGKα (hDGKalpha(1-735)-N-His) (Homo sapiens, UniProt P23743)",
    "pIC50": 5.76
  },
  {
    "molecule": "COC(=O)N1CC2CC(c3nnc(-c4ccc5c(c4)N(Cc4ccc(-c6ccc(C(F)(F)F)cc6)nc4)C(=O)[C@@H](N)CS5(=O)=O)o3)(C2)C1 [Example 58]",
    "assay-system": "DGKα (hDGKalpha(1-735)-N-His) (Homo sapiens, UniProt P23743)",
    "pIC50": 4.58
  }
]

I. COc1ccc(-c2ccc(CN3C(=O)[C@@H](N)CS(=O)(=O)c4ccc(-c5nnc(C(C)(C)C#N)o5)cc43)cc2)nc1 [Example 125]
II. CC(C)(C)C(N)c1nnc(-c2ccc3c(c2)N(Cc2ccc(-c4noc(C(F)(F)F)n4)cc2)C(=O)[C@@H](N)CS3(=O)=O)o1 (stereo partly drawn) [Example 34]
Q) Between I and II , whose measured pIC50 reads higher? // respond with label for picked entry
A) I

###

System: primary human T-cells
Assay: Proliferation assay (5 days, CellTiter-Glo, CD3-stimulated T-cells)
Type: cell-based
Details: CD3-stimulated primary human T-cells, 5 days, CellTiter-Glo, fitted sigmoidal curve; read-out: Tcell Proliferation CD3 EC50
measured-quantity: EC50 (nM)
Report the value in nM with no unit label.

Q) Query (compound): `COC(=O)N1CC2CC(c3nnc(-c4ccc5c(c4)N(Cc4ccc(-c6noc(C(F)(F)F)n6)cc4)C(=O)[C@@H](N)CS5(=O)=O)o3)(C2)C1` ; field requested: EC50
A) 216

###

System: primary human T-cells
Assay: IL2 secretion measurements (24 h, CD3-stimulated T-cells, PBS counter screen)
Format: cell-based
Details: CD3 condition; normalised to DMSO (neutral) and 20 μM reference compound A1 = 100%
measured-quantity: Emax IL2 (% activation)
Report the value in % activation with no unit label.

These recorded examples may help you get a feel for the data.
[
  {
    "compound": "COC(=O)N1CC2CC(c3nnc(-c4ccc5c(c4)N(Cc4ccc(-c6ccc(C(F)(F)F)cc6)nc4)C(=O)[C@@H](N)CS5(=O)=O)o3)(C2)C1",
    "Emax IL2 (% activation)": 505
  },
  {
    "compound": "CC(C#N)c1nnc(-c2ccc3c(c2)N(Cc2ccc(-c4noc(C(F)(F)F)n4)cc2)C(=O)[C@@H](N)CS3(=O)=O)o1 (stereo partly drawn)",
    "Emax IL2 (% activation)": 193
  },
  {
    "compound": "N[C@H]1CS(=O)(=O)c2ccc(-c3nnc(N4CCC(F)(F)CC4)o3)cc2N(Cc2ccc(-c3nnc(C(F)F)o3)cc2)C1=O",
    "Emax IL2 (% activation)": 43
  },
  {
    "compound": "Cn1ccc(-c2ccc(CN3C(=O)[C@@H](N)CS(=O)(=O)c4ccc(-c5nnc(C(C)(C)C)o5)cc43)cc2)n1",
    "Emax IL2 (% activation)": 53
  },
  {
    "compound": "CC(C)Nc1nnc(-c2cc3c(cc2F)S(=O)(=O)C[C@H](N)C(=O)N3Cc2ccc(-c3noc(C(F)(F)F)n3)cc2)o1",
    "Emax IL2 (% activation)": 212
  }
]

Moving on to another compound below.
Q) Query (compound): CCC(O)(c1nnc(-c2ccc3c(c2)N(Cc2ccc(-c4noc(C(F)(F)F)n4)cc2)C(=O)[C@@H](N)CS3(=O)=O)o1)C(F)(F)F (stereo partly drawn) ; field requested: Emax IL2 (% activation)
A) 172

###

Test system: primary human T-cells
Test: IL2 secretion measurements (24 h, CD3-stimulated T-cells, PBS counter screen)
Assay type: cell-based
Settings: CD3 condition; normalised to DMSO (neutral) and 20 μM reference compound A1 = 100%
Examples of compounds with documented Emax IL2 (% activation) follow.
Report the value in % activation with no unit label.

[
  {
    "record-smiles": "CC(C)(C#N)c1nnc(-c2ccc3c(c2)N(Cc2ccc(-c4ccc(C5CC5)cn4)cc2)C(=O)[C@@H](N)CS3(=O)=O)o1",
    "val": 172
  },
  {
    "record-smiles": "CC(C)(C)c1nnc(-c2ccc3c(c2)N(Cc2ccc(-c4ncc(C(F)(F)F)o4)cc2)C(=O)[C@@H](N)CS3(=O)=O)o1",
    "val": 279
  },
  {
    "record-smiles": "CC(C)(C)c1nnc(-c2ccc3c(c2)N(Cc2ccc(-n4cnc(C(F)(F)F)c4)cc2)C(=O)[C@@H](N)CS3(=O)=O)o1",
    "val": 81
  },
  {
    "record-smiles": "Cc1noc(-c2ccc(CN3C(=O)[C@@H](N)CS(=O)(=O)c4ccc(-c5nnc(C(C)(C)C)o5)cc43)cc2)n1",
    "val": 82
  },
  {
    "record-smiles": "CC(C)(C)c1nnc(-c2ccc3c(c2)N(Cc2ccc(-c4nnc(C(F)(F)F)o4)cc2)C(=O)[C@@H](N)CS3(=O)=O)o1",
    "val": 131
  }
]

Q) Query (compound): `CC(C)(C#N)c1nnc(-c2ccc3c(c2)N(Cc2ccc(-c4ccc(C(F)(F)F)nc4)cc2)C(=O)[C@@H](N)CS3(=O)=O)o1` ; field requested: Emax IL2 (% activation)
A) 85
